Test system: up to 32 different microorganisms
Experiment: in vitro antibacterial activity (MIC), agar dilution on Brain Heart Infusion (BHI) agar with Steers replicator
Assay type: cell-based
Conditions: Streptococcus pyogenes PIU 2548 (code NN); unit assumed
Experimental: Representative compounds of the present invention were assayed in vitro for antibacterial activity as follows: Twelve petri dishes containing successive aqueous dilutions of the test compound mixed with 10 mL of sterilized Brain Heart Infusion (BHI) agar (Difco 0148-01-5) were prepared. Each plate was inoculated with 1:100 (or 1:10 for slow-growing strains, such as Micrococcus and Streptococcus) dilutions of up to 32 different microorganisms, using a Steers replicator block. […]
value type: MIC (µg/mL)
Provide only the numeric value, understood in µg/mL.

1. CCC1OC(=O)C(C)C(=O)C(C)C(OC2OC(C)CC(N(C)C)C2O)C(C)(OCC=Cc2ccc3[nH]ccc3c2)CC(C)C(=O)C(C)C2NC(=O)OC12C (stereo not drawn) [Example 190, R is —CH2CH═CH-(5-indolyl)]    0.1

Log: up to 32 different microorganisms, compound CC[C@H]1OC(=O)[C@H](C)C(=O)[C@H](C)[C@@H](O[C@@H]2O[C@H](C)C[C@H](N(C)C)[C@H]2O)[C@@](C)(OCCNCCc2ccccc2)C[C@@H](C)C(=O)[C@H](C)[C@@H](O)[C@]1(C)O [Example 10] , MIC = 1.56

Form field, MIC with up to 32 different microorganisms, item CC[C@H]1OC(=O)[C@H](C)C(=O)[C@H](C)[C@@H](O[C@@H]2O[C@H](C)C[C@H](N(C)C)[C@H]2O)[C@@](C)(OCC=Cc2ccccc2)C[C@@H](C)C(=O)[C@H](C)[C@@H](O)[C@]1(C)O [Example 14] : 0.78

Note to self: MIC of CC[C@H]1OC(=O)[C@H](C)C(=O)[C@H](C)[C@@H](O[C@@H]2O[C@H](C)C[C@H](N(C)C)[C@H]2O)[C@@](C)(OCCCc2ccccc2)C[C@@H](C)C(=O)[C@H](C)[C@@H](O)[C@]1(C)O [Example 15] with up to 32 different microorganisms was 3.1

Case CCC1OC(=O)C(C)C(=O)C(C)C(OC2OC(C)CC(N(C)C)C2O)C(C)(OCC=Cc2ccc3ccccc3c2)CC(C)C(=O)C(C)C2NC(=O)OC12C (stereo not drawn) [Example 186, R is —CH2CH═CH-(2-naphthyl)] , up to 32 different microorganisms, MIC recorded as 0.1

Bench note, up to 32 different microorganisms: CC[C@H]1OC(=O)[C@H](C)C(=O)[C@H](C)[C@@H](O[C@@H]2O[C@H](C)C[C@H](N(C)C)[C@H]2O)[C@@](C)(OCC#N)C[C@@H](C)C(=O)[C@H](C)[C@@H](O)[C@]1(C)O [Example 7] , MIC reads 3.1

Fill in: up to 32 different microorganisms MIC for CC[C@H]1OC(=O)[C@H](C)C(=O)[C@H](C)[C@@H](O[C@@H]2O[C@H](C)C[C@H](N(C)C)[C@H]2O)[C@@](C)(OCC(O)C#N)C[C@@H](C)C(=O)[C@H](C)[C@@H](O)[C@]1(C)O (stereo partly drawn) [Example 175] = 0.39

Bench note, up to 32 different microorganisms: entry CC[C@H]1OC(=O)[C@H](C)C(=O)[C@H](C)[C@@H](O[C@@H]2O[C@H](C)C[C@H](N(C)C)[C@H]2O)[C@@](C)(OCCNCc2ccncc2)C[C@@H](C)C(=O)[C@H](C)[C@@H](O)[C@]1(C)O [Example 12] , its MIC = 1.56

The value of MIC recorded for C=CCO[C@@]1(C)C[C@@H](C)C(=O)[C@H](C)[C@H]2OC(=O)O[C@]2(C)[C@@H](CC)OC(=O)[C@H](C)C(=O)[C@H](C)[C@H]1O[C@@H]1O[C@H](C)C[C@H](N(C)C)[C@H]1O [Example 71] when tested on up to 32 different microorganisms reads 0.39

---

test system: up to 32 different microorganisms; assay: in vitro antibacterial activity (MIC), agar dilution on Brain Heart Infusion (BHI) agar with Steers replicator; format: cell-based; conditions: organism code II; unit assumed
# label = satisfied if MIC < 0.05 µg/mL else not satisfied

1. CCC1OC(=O)C(C)C(=O)C(C)C(OC2OC(C)CC(N(C)C)C2O)C(C)(OCC=Cc2cnc3c([N+](=O)[O-])cccc3c2)CC(C)C(=O)C(C)C2NC(=O)OC12C (stereo not drawn)    satisfied

Ask: Determine whether this molecule shows MIC lower than 0.05 µg/mL (ties excluded): CCC1OC(=O)C(C)C(=O)C(C)C(OC2OC(C)CC(N(C)C)C2O)C(C)(OCC=Cc2cnc3ccc(NC(C)=O)cc3c2)CC(C)C(=O)C(C)C2NC(=O)OC12C (stereo not drawn)
Result: not satisfied

Ask: Below 0.05 µg/mL on MIC? Entry CCC1OC(=O)C(C)C(=O)C(C)C(OC2OC(C)CC(N(C)C)C2O)C(C)(OCC=Cc2ccc3ncc(-c4ccccc4)cc3c2)CC(C)C(=O)C(C)C2NC(=O)OC12C (stereo not drawn)
Result: not satisfied

Ask: In the record for CCC1OC(=O)C(C)C(=O)C(C)C(OC2OC(C)CC(N(C)C)C2O)C(C)(OCC=Cc2cnc3ccc(O)cc3c2)CC(C)C(=O)C(C)C2NC(=O)OC12C (stereo not drawn) [Example 208, R is —CH2CH═CH-(6-hydroxy-3-quinolyl)] , is MIC less than 0.05 µg/mL?
Result: not satisfied

Ask: Take the molecule CC[C@H]1OC(=O)[C@H](C)C(=O)[C@H](C)[C@@H](O[C@@H]2O[C@H](C)C[C@H](N(C)C)[C@H]2O)[C@@](C)(OCC2COC(C)(C)O2)C[C@@H](C)C(=O)[C@H](C)[C@H]2NC(=O)O[C@@]21C (stereo partly drawn) and say whether its MIC is less than 0.05 µg/mL.
Result: not satisfied

Ask: Would you kindly verify if MIC of "CC[C@H]1OC(=O)[C@H](C)C(=O)[C@H](C)[C@@H](O[C@@H]2O[C@H](C)C[C@H](N(C)C)[C@H]2O)[C@@](C)(OCCNOCc2ccccc2)C[C@@H](C)C(=O)[C@H](C)[C@H]2NC(=O)O[C@@]21C" is strictly less than 0.05 µg/mL?
Result: not satisfied

Ask: Threshold test, MIC < 0.05 µg/mL: CCC1OC(=O)C(C)C(=O)C(C)C(OC2OC(C)CC(N(C)C)C2O)C(C)(OCC=Cc2ccc3nccnc3c2)CC(C)C(=O)C(C)C2NC(=O)OC12C (stereo not drawn)
Result: satisfied

---

Test system: up to 32 different microorganisms
Assay: in vitro antibacterial activity (MIC), agar dilution on Brain Heart Infusion (BHI) agar with Steers replicator
Assay type: cell-based
Conditions: Streptococcus Pneumonia ATCC6303 (code XX); unit assumed
Experimental: Representative compounds of the present invention were assayed in vitro for antibacterial activity as follows: Twelve petri dishes containing successive aqueous dilutions of the test compound mixed with 10 mL of sterilized Brain Heart Infusion (BHI) agar (Difco 0148-01-5) were prepared. Each plate was inoculated with 1:100 (or 1:10 for slow-growing strains, such as Micrococcus and Streptococcus) dilutions of up to 32 different microorganisms, using a Steers replicator block. […]
Catalogue of MIC readings, one per entry.
Form entry: value (µg/mL) — number only.

Reference set (2 entries):
1) CC[C@H]1OC(=O)[C@H](C)C(=O)[C@H](C)[C@@H](O[C@@H]2O[C@H](C)C[C@H](N(C)C)[C@H]2O)[C@@](C)(OCC=Cc2ccccc2)C[C@@H](C)C(=O)[C@H](C)[C@@H](O)[C@]1(C)O    1
2) CCC1OC(=O)C(C)C(=O)C(C)C(OC2OC(C)CC(N(C)C)C2O)C(C)(OCC=Cc2cnc3ccccc3c2)CC(C)C(=O)C(C)C2N(CCN(C)C)C(=O)OC12C (stereo not drawn)    0.125

Here is the next item to consider.
Noted for CCC1OC(=O)C(C)C(=O)C(C)C(OC2OC(C)CC(N(C)C)C2O)C(C)(OCC=Cc2ccc3c(c2)OCCO3)CC(C)C(=O)C(C)C2NC(=O)OC12C (stereo not drawn) : its MIC reads 0.03

---

tested on: up to 32 different microorganisms; assay: in vitro antibacterial activity (MIC), agar dilution on Brain Heart Infusion (BHI) agar with Steers replicator; assay type: cell-based; settings: organism code II; unit assumed
Listed below: MIC values for each entry.
State the answer as a number, implicitly in µg/mL.

1) CC[C@H]1OC(=O)[C@H](C)C(=O)[C@H](C)[C@@H](O[C@@H]2O[C@H](C)C[C@H](N(C)C)[C@H]2O)[C@@](C)(OCC=NOCc2ccnc3ccccc23)C[C@@H](C)C(=O)[C@H](C)[C@H]2NC(=O)O[C@@]21C    0.02
2) CCC1OC(=O)C(C)C(=O)C(C)C(OC2OC(C)CC(N(C)C)C2O)C(C)(OCC=Cc2cnc3ccc(C(N)=O)cc3c2)CC(C)C(=O)C(C)C2NC(=O)OC12C (stereo not drawn)    0.2

Could you now look at the following compound, please?
Lab book: MIC of "CC[C@H]1OC(=O)[C@H](C)C(=O)[C@H](C)[C@@H](O[C@@H]2O[C@H](C)C[C@H](N(C)C)[C@H]2O)[C@@](C)(OCC=NOCc2ccccc2)C[C@@H](C)C(=O)[C@H](C)[C@H]2NC(=O)O[C@@]21C" noted as 0.05
